- assay.target: T1, hVEGF-A (8-109) (human, UniProt P15692 214-315)
- T1 sequence (looked up): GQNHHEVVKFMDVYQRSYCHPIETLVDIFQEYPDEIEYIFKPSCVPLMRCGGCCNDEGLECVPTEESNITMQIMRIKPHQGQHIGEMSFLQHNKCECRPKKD
- assay.notes: spot phage ELISA
Decide by S/N vs BSA: equal to or exceeding 20 means criterion met, less means criterion not met.

>>> label_value("GCDLMQPLWGCKQDSDCLAGCVCHWYQSCG (designed binder) [VEGF_CKP9.L1.76]")
"criterion not met"
>>> label_value("GCQVMRPFWGCKQDSDCLAGCVCHWYQSCG (designed binder) [VEGF_CKP9.L1.7]")
"criterion not met"
>>> label_value("GCNPMLPFWGCKQDSDCLAGCVCHWYQSCG (designed binder) [VEGF_CKP9.L1.57]")
"criterion met"
>>> label_value("GCQVMQPAWGCKQDSDCLAGCVCHWYQSCG (designed binder) [VEGF_CKP9.L1.8]")
"criterion not met"
>>> label_value("GCNPMLPLWGCKQDSDCLAGCVCHWYQSCG (designed binder) [VEGF_CKP9.L1.78]")
"criterion met"
>>> label_value("GCDIMQPLWGCKQDSDCLAGCVCHWYQSCG (designed binder) [VEGF_CKP9.L1.68]")
"criterion met"
